assay: Cytotoxicity assay in replicon cells (MTS); format: cell-based; details: HCV replicon cells (1b-Con1), three days post dosing, head prints EDU, method MTS, read-out: CC50 (EDU) Range
Reported CC50 at 3 days by item:
parameter: CC50 at 3 days

> print(dat)
                                   compound  datavalue
1  C[C@@]1(Cl)[C@@H]2O[P@](=O)(OCCCCC(=O)OC3CCCC3)OC[C@H]2O[C@H]1n1ccc(=O)[nH]c1=O [Compound 19B]    > 50 µM
2  C#C[C@@]1(O)[C@@H]2O[P@](=O)(OCCCC(=O)OC(C)C)OC[C@H]2O[C@H]1n1ccc(=O)[nH]c1=O [Compound 13B]    > 50 µM
3  C#C[C@]1(C)[C@@H]2O[P@](=O)(OCCCCC(=O)OC3CCCC3)OC[C@H]2O[C@H]1n1ccc(=O)[nH]c1=O [Compound 16B]    > 50 µM
